molecular target: bradykinin 1 receptor (B1R) of the rat (Rattus norvegicus, UniProt P97583); construct: expressed in transfected cells; host or cells: CHO K1 cells; test: Functional investigation on the rat bradykinin 1 receptor (B1R), Ca2+ FLIPR assay in CHO K1 rB1R cells; assay type: cell-based; details: CHO-K1, B1R antagonism rat; test substance 10 μM; Ca2+ FLIPR, CHO K1 rB1R cells; read-out: B1R Ant. r [10 μM] % Inhibition
Sequence (P97583 whole entry): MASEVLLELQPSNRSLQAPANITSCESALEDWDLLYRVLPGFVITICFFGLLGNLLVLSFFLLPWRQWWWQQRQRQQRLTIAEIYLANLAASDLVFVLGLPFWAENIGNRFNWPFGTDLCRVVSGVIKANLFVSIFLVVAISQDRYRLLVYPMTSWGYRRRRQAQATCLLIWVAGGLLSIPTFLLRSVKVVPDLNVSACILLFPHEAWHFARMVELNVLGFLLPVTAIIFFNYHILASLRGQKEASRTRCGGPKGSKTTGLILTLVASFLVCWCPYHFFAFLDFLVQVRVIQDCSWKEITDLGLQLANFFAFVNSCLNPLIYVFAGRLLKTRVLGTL
PROPERTY MEASURED: inhibition at 10 µM (%)
Kindly provide the numeric value in % only, without the unit symbol.

# CN(CCOCC(=O)NC1CCC(C(CCc2ccccc2)N2CCOCC2)CC1)S(=O)(=O)c1c(Cl)cc(C(F)(F)F)cc1Cl (centres unmarked) with bradykinin 1 receptor (B1R) of the rat (Rattus norvegicus, UniProt P97583): inhibition at 10 µM is 58

# CN(C)C(c1cccs1)C1CCC(CCNC(=O)COCCN2CCN(S(=O)(=O)c3ccccc3)CC2)CC1 (centres unmarked) with bradykinin 1 receptor (B1R) of the rat (Rattus norvegicus, UniProt P97583): inhibition at 10 µM is -8

# O=C(COCC1CCCCN1S(=O)(=O)c1c(Cl)cc(Cl)cc1Cl)NCC1CCC(C(c2ccccc2)N2CCOCC2)CC1 (centres unmarked) with bradykinin 1 receptor (B1R) of the rat (Rattus norvegicus, UniProt P97583): inhibition at 10 µM is 100

Cited source: patent US8106055B2
